Reference for the values: the supplement of paper PMC11061612

Test system: CML-T1 (Chronic Myelogenous Leukemia);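 note: after 72 h of two-drug dosing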
methodNotes: Bliss excess, mean over the matrix (fraction); higher = more synergy
# Bliss excess per entry
Lab note: write the figure by itself, no unit.

The examples below pair each entry with its known result.
1) CN(CCO)CC[C@H](CSc1ccccc1)Nc1ccc(S(=O)(=O)NC(=O)c2ccc(N3CCC([C@@H](O)c4ccccc4-c4ccc(Cl)cc4)CC3)cc2)cc1S(=O)(=O)C(F)(F)F [AZD4320] + CN(C)CCCOc1ccc(-c2ccc3ncc4c(c3c2)n(C2CCOCC2)c(=O)n4C)cn1 [AZD0156] (first compound max 1 µM, 7x7, partner max 1 µM) = 0.013
2) C=CCn1c(=O)c2cnc(Nc3ccc(N4CCN(C)CC4)cc3)nc2n1-c1cccc(C(C)(C)O)n1 [AZD1775] + C1CN(CCC1(C(=O)N[C@@H](CCO)C2=CC=C(C=C2)Cl)N)C3=NC=NC4=C3C=CN4 [Capivasertib] (first compound max 3 µM, partner max 3 µM) = -0.0178
3) COc1cccc(OCCCN)c1-c1cc(Nc2cnc(C#N)cn2)n[nH]1 [Prexasertib] + CN(C)CCCOc1ccc(-c2ccc3ncc4c(c3c2)n(C2CCOCC2)c(=O)n4C)cn1 [AZD0156] (first compound max 1 µM, 7x7, partner max 1 µM) = -0.0328

Query :: Reported Bliss excess for CML-T1 (Chronic Myelogenous Leukemia), given CN(C)CCCOc1ccc(-c2ccc3ncc4c(c3c2)n(C2CCOCC2)c(=O)n4C)cn1 [AZD0156] + C=CCn1c(=O)c2cnc(Nc3ccc(N4CCN(C)CC4)cc3)nc2n1-c1cccc(C(C)(C)O)n1 [AZD1775] (first compound max 1 µM, partner max 1 µM) ?
Result :: -0.0271

Query :: Also check COc1cccc2c1C(=O)c1c(O)c3c(c(O)c1C2=O)C[C@@](O)(C(=O)CO)C[C@@H]3O[C@H]1C[C@H](N)[C@H](O)[C@H](C)O1 [Doxorubicin] + Cc1cc2ncnn2cc1Nc1ncc2c(n1)n(C1CCOCC1)c(=O)n2C [AZD7648] (first compound max 1 µM, 7x7, partner max 10 µM)
Result :: 0.0824

Query :: Also check CCN(CCO)CCCOc1ccc2c(Nc3cc(CC(=O)Nc4cccc(F)c4)[nH]n3)ncnc2c1 [AZD2811] + O=C(c1cc(Cc2n[nH]c(=O)c3ccccc23)ccc1F)N1CCN(C(=O)C2CC2)CC1 [Olaparib] (first compound max 1 µM, 7x7, partner max 10 µM)
Result :: 0.029

Query :: Also check O=C(c1cc(Cc2n[nH]c(=O)c3ccccc23)ccc1F)N1CCN(C(=O)C2CC2)CC1 [Olaparib] + CN(CC[C@H](CSC1=CC=CC=C1)NC2=C(C=C(C=C2)S(=O)(=O)NC(=O)C3=CC=C(C=C3)N4CCC(CC4)[C@H](C5=CC=CC=C5C6=CC=C(C=C6)Cl)O)S(=O)(=O)C(F)(F)F)CCO [AZD4320] (first compound max 10 µM, 7x7, partner max 1 µM)
Result :: 0.0456
